# System Under Test: EGFR L858R (BaF3-L858R cells) (Homo sapiens, UniProt P00533, L858R)
# Construct: host or cells: BaF3
# Sequence (P00533 25-1210 L858R): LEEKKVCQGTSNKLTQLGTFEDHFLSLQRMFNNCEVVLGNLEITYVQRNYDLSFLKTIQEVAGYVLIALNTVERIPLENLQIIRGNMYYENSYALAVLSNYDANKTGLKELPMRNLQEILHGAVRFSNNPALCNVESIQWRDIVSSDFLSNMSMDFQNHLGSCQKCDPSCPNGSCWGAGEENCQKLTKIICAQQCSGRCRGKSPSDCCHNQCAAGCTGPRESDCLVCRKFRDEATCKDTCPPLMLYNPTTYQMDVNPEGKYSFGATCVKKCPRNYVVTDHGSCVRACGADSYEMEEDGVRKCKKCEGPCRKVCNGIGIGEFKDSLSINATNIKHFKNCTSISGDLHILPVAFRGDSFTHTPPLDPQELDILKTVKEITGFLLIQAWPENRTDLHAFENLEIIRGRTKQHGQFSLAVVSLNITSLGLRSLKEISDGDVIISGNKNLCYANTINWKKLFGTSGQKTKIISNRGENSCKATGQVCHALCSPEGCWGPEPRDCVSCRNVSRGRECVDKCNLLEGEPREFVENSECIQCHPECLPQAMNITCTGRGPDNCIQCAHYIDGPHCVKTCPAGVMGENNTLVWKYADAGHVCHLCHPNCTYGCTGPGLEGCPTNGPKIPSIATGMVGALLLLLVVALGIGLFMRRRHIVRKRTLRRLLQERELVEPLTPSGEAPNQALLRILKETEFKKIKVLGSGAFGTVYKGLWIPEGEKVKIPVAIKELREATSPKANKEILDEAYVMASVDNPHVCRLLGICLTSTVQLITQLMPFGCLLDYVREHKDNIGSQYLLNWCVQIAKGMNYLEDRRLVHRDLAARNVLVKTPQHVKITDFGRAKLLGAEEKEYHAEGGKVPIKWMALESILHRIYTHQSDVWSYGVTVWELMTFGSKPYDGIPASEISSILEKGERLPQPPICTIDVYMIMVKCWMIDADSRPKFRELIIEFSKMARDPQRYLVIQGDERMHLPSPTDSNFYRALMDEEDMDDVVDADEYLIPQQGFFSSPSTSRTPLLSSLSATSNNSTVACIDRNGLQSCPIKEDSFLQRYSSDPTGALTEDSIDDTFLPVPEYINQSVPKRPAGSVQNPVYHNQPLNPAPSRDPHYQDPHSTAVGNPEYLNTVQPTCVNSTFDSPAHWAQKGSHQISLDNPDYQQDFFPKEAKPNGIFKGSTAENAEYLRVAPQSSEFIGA
# Measurement Protocol: Cell degradation of EGFR, HTRF assay, BaF3-L858R cells
# Type: cell-based
# Measurement Setup: 16 h treatment, EGFR degradation
Readout Kind: DC50 (nM)
One number for each entry, in nM.

# count of solved cases: 6
1) Cc1cc2cc(n1)-c1c(C)nn(C)c1OC[C@H]1CC[C@H](C1)CN1/C(=N/C2=O)Nc2ccc(N3CCN(C4CCN(c5cc(F)c([C@H]6CCC(=O)NC6=O)c(F)c5)CC4)C[C@@H]3CF)cc21	0.73
2) Cc1cc2cc(n1)-c1cnn(C)c1OC[C@H]1CCC(C1)CN1/C(=N/C2=O)Nc2ccc(N3CC4(CCN(C5CCN(c6cc(F)c([C@H]7CCC(=O)NC7=O)c(F)c6)CC5)CC4)C3)cc21	1.37
3) Cc1cc2cc(n1)-c1c(C)nn(C)c1OC[C@H]1CC[C@H](C1)CN1/C(=N/C2=O)Nc2ccc(N3CCN(C4CCN(c5cc(F)c([C@H]6CCC(=O)NC6=O)c(F)c5)CC4)C[C@H]3C)cc21	3.11
4) Cc1cc2cc(n1)-c1c(C)nn(C)c1OC[C@H]1CC[C@H](C1)CN1/C(=N/C2=O)Nc2ccc(N3C[C@@H](C)N(C4CCN(c5cc(F)c([C@H]6CCC(=O)NC6=O)c(F)c5)CC4)C[C@@H]3C)cc21	2.1
5) Cc1cc2cc(n1)-c1c(C)nn(C)c1OC[C@H]1CCC(C1)CN1/C(=N/C2=O)Nc2ccc(N3CCN(CC4CCN(c5cc(F)c([C@H]6CCC(=O)NC6=O)c(F)c5)CC4)[C@H](C)C3)cc21	1.89
6) COC[C@@H]1CN(c2ccc3c(c2)N2CC4CC[C@H](COc5c(c(C)nn5C)-c5cc(cc(C)n5)C(=O)/N=C/2N3)C4)CCN1C1CCN(c2c(F)cc(NC3CCC(=O)NC3=O)cc2F)CC1 (stereo partly shown)	2.36

Provide DC50 values for the following items, in order.
1. COC[C@H]1CN(c2ccc3c(c2)N2CC4CC[C@H](COc5c(c(C(F)(F)F)nn5C)-c5cc(cc(C)n5)C(=O)/N=C/2N3)C4)CCN1C1CCN(c2cc(F)c([C@H]3CCC(=O)NC3=O)c(F)c2)CC1
2. Cc1cc2cc(n1)-c1cnn(C)c1OC[C@H]1CC[C@H](C1)CN1/C(=N/C2=O)Nc2ccc(N3CCN(CC4CN(c5ccc6c(c5)CN(C5CCC(=O)NC5=O)C6=O)C4)CC3)cc21 (stereo partly shown)
3. Cc1cc2cc(n1)-c1c(C)nn(C)c1OC[C@H]1CC[C@H](C1)CN1/C(=N/C2=O)Nc2ccc(N3CCN(CC4CN(c5cc(F)c([C@H]6CCC(=O)NC6=O)c(F)c5)C4)CC3)cc21
4. Cc1cc2cc(n1)-c1cnn(CCO)c1OC[C@H]1CCC(C1)CN1/C(=N/C2=O)Nc2ccc(N3CCC(N4CCC(Nc5cc(F)c([C@H]6CCC(=O)NC6=O)c(F)c5)CC4)CC3)cc21

[8.5, 0.49, 6.02, 16.2]

###

# System Under Test: EGFR-L858R/C797S (H1975-clone #8 cells) (Homo sapiens, UniProt P00533, C797S/L858R)
# Construct: expressed in transfected cells; host or cells: H1975 (endogenous EGFR knocked out, clone #8)
# Sequence (P00533 25-1210 C797S/L858R): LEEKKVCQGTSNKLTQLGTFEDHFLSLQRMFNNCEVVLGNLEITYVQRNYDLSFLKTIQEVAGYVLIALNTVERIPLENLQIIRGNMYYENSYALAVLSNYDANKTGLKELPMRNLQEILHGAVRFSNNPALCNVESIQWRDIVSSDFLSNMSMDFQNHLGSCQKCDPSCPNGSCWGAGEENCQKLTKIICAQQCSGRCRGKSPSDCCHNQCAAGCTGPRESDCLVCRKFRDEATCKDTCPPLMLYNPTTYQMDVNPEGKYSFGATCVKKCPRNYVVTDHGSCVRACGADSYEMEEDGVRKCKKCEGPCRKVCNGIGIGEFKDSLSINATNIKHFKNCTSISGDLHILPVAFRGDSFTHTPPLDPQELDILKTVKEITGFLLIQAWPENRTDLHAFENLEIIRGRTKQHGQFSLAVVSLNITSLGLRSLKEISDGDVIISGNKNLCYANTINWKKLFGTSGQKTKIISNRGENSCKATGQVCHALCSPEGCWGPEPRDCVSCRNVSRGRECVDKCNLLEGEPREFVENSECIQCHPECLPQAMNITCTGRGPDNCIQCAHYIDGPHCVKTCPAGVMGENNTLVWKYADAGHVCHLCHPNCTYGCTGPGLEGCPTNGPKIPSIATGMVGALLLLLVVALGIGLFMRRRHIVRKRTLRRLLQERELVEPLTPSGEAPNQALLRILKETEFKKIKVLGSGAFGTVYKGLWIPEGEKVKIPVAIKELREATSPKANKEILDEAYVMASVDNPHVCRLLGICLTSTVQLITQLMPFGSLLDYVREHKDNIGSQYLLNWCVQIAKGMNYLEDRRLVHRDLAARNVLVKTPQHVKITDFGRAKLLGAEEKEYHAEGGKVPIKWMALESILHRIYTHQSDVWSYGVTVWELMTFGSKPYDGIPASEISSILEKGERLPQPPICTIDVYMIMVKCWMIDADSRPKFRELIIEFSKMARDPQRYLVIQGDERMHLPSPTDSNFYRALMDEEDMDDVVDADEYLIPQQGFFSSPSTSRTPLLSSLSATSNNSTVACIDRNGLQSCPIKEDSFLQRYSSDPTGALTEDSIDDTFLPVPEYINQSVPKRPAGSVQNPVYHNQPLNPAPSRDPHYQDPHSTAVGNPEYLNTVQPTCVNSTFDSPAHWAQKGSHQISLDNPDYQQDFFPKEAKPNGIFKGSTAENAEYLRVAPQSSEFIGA
# Measurement Protocol: Cell degradation of EGFR, HTRF assay, H1975-clone#8 (L858R/C797S) cells
# Format: cell-based
# Measurement Setup: 16 h treatment, maximum percentage of degradation
# Description: The EGFR over-expressed cells then underwent knockout, in which the EGFR targeting sgRNA was designed to only target the endogenous EGFR copies and preserve the exogenous EGFR copies. Followed by the knockout, the edited H1975 cells were seeded in 96 well plates at the concentration of […], cultured for about 2 weeks to allow single clones formation. […] High control=Cell group with added DMSO and without compound, indicating microplate readings without EGFR degradation; […]
Readout Kind: Dmax (%)
Numbers only, in %.

# count of solved cases: 2
1) Cc1cc2cc(n1)-c1cnn(C)c1OC[C@H]1CC[C@H](C1)CN1/C(=N/C2=O)Nc2ccc(N3CCN([C@@H]4CCN(c5cnc(C6CCC(=O)NC6=O)cc5C)C[C@@H]4F)CC3)cc21 (stereo partly shown)	83.2
2) Cc1cc2cc(n1)-c1cnn(C)c1OC[C@H]1CCC(C1)CN1/C(=N/C2=O)Nc2ccc(N3CCN(C4CCN(c5ccc(NC6CCC(=O)NC6=O)nc5C)CC4)CC3)cc21 (stereo partly shown)	75

Provide Dmax values for the following items, in order.
1. Cc1cc2cc(n1)-c1c(C)nn(C)c1OC[C@H]1CC[C@H](C1)CN1/C(=N/C2=O)Nc2ccc(N3CCN(C4CCN(c5cc(F)c([C@H]6CCC(=O)NC6=O)c(F)c5)CC4)C[C@@H]3CF)cc21
2. Cc1cc2cc(n1)-c1c(C)nn(C)c1OC[C@H]1CC[C@H](C1)CN1/C(=N/C2=O)Nc2ccc(N3CCN(CC4CN(c5cc(F)c([C@H]6CCC(=O)NC6=O)c(F)c5)C4)[C@H](C(F)F)C3)cc21
3. COCC1(N2CCN(c3ccc4c(c3)N3CC5CC[C@H](COc6c(cnn6C)-c6cc(cc(C)n6)C(=O)/N=C/3N4)C5)CC2)CCN(c2ccc(C3CCC(=O)NC3=O)nc2C)CC1 (stereo partly shown)
4. Cc1cc2cc(n1)-c1cnn(C)c1OC[C@H]1CCC(C1)CN1/C(=N/C2=O)Nc2ccc(N3CCN(C4CCN(c5cc(F)c([C@H]6CCC(=O)NC6=O)c(F)c5)CC4)[C@@H](CO)C3)cc21
5. Cc1cc2cc(n1)-c1cnn(C)c1OC[C@H]1CCC(C1)CN1/C(=N/C2=O)Nc2ccc(N3CC4(CCN(C5CCN(c6cc(F)c([C@H]7CCC(=O)NC7=O)c(F)c6)CC5)CC4)C3)cc21
6. Cc1cc2cc(n1)-c1cnn(C)c1OC[C@H]1CC[C@H](C1)CN1/C(=N/C2=O)Nc2ccc(N3CCN([C@@H]4CCN(c5ccc(C6CCC(=O)NC6=O)nc5C)C[C@@H]4F)CC3)cc21 (stereo partly shown)

1: 88.8; 2: 85.8; 3: 83.3; 4: 61.3; 5: 67.4; 6: 88.4

Provide Dmax values for the following items, in order.
1. Cc1cc2cc(n1)-c1cnn(C)c1OC[C@H]1CC[C@H](C1)CN1/C(=N/C2=O)Nc2ccc(N3CCN([C@H]4CCN(c5cc(F)c(C6CCC(=O)NC6=O)nc5C)C[C@H]4F)CC3)cc21 (stereo partly shown)
2. Cc1cc2cc(n1)-c1cnn(C)c1OC[C@H]1CCC(C1)CN1/C(=N/C2=O)Nc2cc(C)c(N3CCN([C@@H]4CCN(c5ccc(C6CCC(=O)NC6=O)nc5C)C[C@@H]4F)CC3)cc21 (stereo partly shown)
3. Cc1cc2cc(n1)-c1c(C)nn(C)c1OC[C@H]1CCC(C1)CN1/C(=N/C2=O)Nc2ccc(N3CCN([C@@H]4CCN(c5ccc(C6CCC(=O)NC6=O)nc5C)C[C@@H]4F)CC3)cc21 (stereo partly shown)
4. Cc1cc2cc(n1)-c1cnn(C)c1OC[C@H]1CC[C@H](C1)CN1/C(=N/C2=O)Nc2ccc(N3CCN(C4CCN(c5cc(F)c([C@H]6CCC(=O)NC6=O)c(F)c5)CC4)CC3)cc21
5. Cc1cc2cc(n1)-c1cnn(C)c1OC[C@H]1CC[C@H](C1)CN1/C(=N/C2=O)Nc2ccc(N3CCN([C@@H]4CCN(c5cc(F)c(C6CCC(=O)NC6=O)nc5C)C[C@@H]4F)CC3)cc21 (stereo partly shown)

90.2
91.5
91.7
79.2
90.9

Provide Dmax values for the following items, in order.
1. Cc1cc2cc(n1)-c1c(C)nn(C)c1OC[C@H]1CCC(C1)CN1/C(=N/C2=O)Nc2ccc(N3CCN(C4CCN(c5cc(F)c([C@H]6CCC(=O)NC6=O)c(F)c5)CC4)CC3)cc21
2. Cc1cc2cc(n1)-c1cnn(C)c1OC[C@H]1CC[C@H](C1)CN1/C(=N/C2=O)Nc2ccc(N3CCN(CCc4c(C)cc(C5CCC(=O)NC5=O)nc4C)CC3)cc21 (stereo partly shown)
3. Cc1cc2cc(n1)-c1cnn(C)c1OC[C@@H]1CC[C@@H](C1)CN1/C(=N/C2=O)Nc2ccc(N3CCN(C4CCN(c5ccc(C6CCC(=O)NC6=O)nc5C)CC4)CC3)cc21 (stereo partly shown)
4. Cc1cc2cc(n1)-c1c(C)nn(C)c1OC[C@H]1CC[C@H](C1)CN1/C(=N/C2=O)Nc2ccc(N3CCN([C@@H]4CCN(c5ccc(OC6CCC(=O)NC6=O)cc5)C[C@@H]4F)CC3)cc21 (stereo partly shown)
5. COC[C@@H]1CN(c2cc3c(cc2C)N/C2=N\C(=O)c4cc(C)nc(c4)-c4c(C)nn(C)c4OC[C@H]4CC[C@H](C4)CN23)CCN1C1CCN(c2cc(F)c([C@H]3CCC(=O)NC3=O)c(F)c2)CC1

86.2
45.4
44
84.8
91.4

Which Dmax value is on record for "COC[C@@H]1CN(c2ccc3c(c2)N2CC4CC[C@H](COc5c(c(C)nn5C)-c5cc(cc(C)n5)C(=O)/N=C/2N3)C4)CCN1C1CCN(c2cc(F)c([C@H]3CCC(=O)NC3=O)c(F)c2)CC1" ? 82.4
